system: RAW264.7; test: Anti-inflammatory activity in mouse RAW264.7 cells assessed as inhibition of LPS-induced TNFalpha secretion at 50 ug/ml preincubated for 1 hr followed by LPS stimulation for 23 hrs by ELISA relative to control; format: functional
inhibition at 50 µg/mL by entry:
endpoint name: inhibition at 50 µg/mL

INSERT INTO measurements (chemical_structure, endpoint_name, assay_result) VALUES
  ('Oc1cc(O)c2c(c1)O[C@@]1(c3ccc(O)c(O)c3)Oc3cc(O)c4c(c3[C@@H]2[C@H]1O)O[C@H](c1ccc(O)c(O)c1)[C@H](O)[C@H]4c1c(O)cc2c(c1O)[C@@H]1c3c(cc(O)c4c3O[C@H](c3ccc(O)c(O)c3)[C@H](O)C4)O[C@](c3ccc(O)c(O)c3)(O2)[C@@H]1O', 'inhibition at 50 µg/mL', '100%'),
  ('Oc1cc(O)c2c(c1)O[C@@]1(c3ccc(O)c(O)c3)Oc3cc(O)c4c(c3[C@@H]2[C@H]1O)O[C@@]1(c2ccc(O)c(O)c2)Oc2cc(O)c3c(c2[C@@H]4[C@H]1O)O[C@H](c1ccc(O)c(O)c1)[C@@H](O)C3', 'inhibition at 50 µg/mL', '78.8%');

---

inhibition at 50 µg/mL by entry:
tested on: RAW264.7; experiment: Anti-inflammatory activity in mouse RAW264.7 cells assessed as inhibition of LPS-induced TNFalpha secretion at 50 ug/ml preincubated for 1 hr followed by LPS stimulation for 23 hrs by ELISA relative to control; format: functional
endpoint name: inhibition at 50 µg/mL (%)

INSERT INTO measurements (chemical_structure, endpoint_name, assay_result) VALUES
  ('Oc1cc(O)c2c(c1)O[C@H](c1ccc(O)c(O)c1)[C@H](O)[C@H]2c1c(O)cc2c(c1O)[C@@H]1c3c(cc(O)c4c3O[C@H](c3ccc(O)c(O)c3)[C@@H](O)C4)O[C@](c3ccc(O)c(O)c3)(O2)[C@@H]1O', 'inhibition at 50 µg/mL', 89.7),
  ('Oc1cc(O)c2c(c1)O[C@@]1(c3ccc(O)c(O)c3)Oc3cc(O)c4c(c3[C@@H]2[C@H]1O)O[C@H](c1ccc(O)c(O)c1)[C@H](O)[C@H]4c1c(O)cc2c(c1O)[C@@H]1c3c(cc(O)c4c3O[C@H](c3ccc(O)c(O)c3)[C@@H](O)C4)O[C@](c3ccc(O)c(O)c3)(O2)[C@@H]1O', 'inhibition at 50 µg/mL', 71.2),
  ('Oc1cc(O)c2c(c1)O[C@@]1(c3ccc(O)c(O)c3)Oc3cc(O)c4c(c3[C@@H]2[C@H]1O)O[C@H](c1ccc(O)c(O)c1)[C@H](O)[C@H]4c1c(O)cc2c(c1O)C[C@H](O)[C@@H](c1ccc(O)c(O)c1)O2', 'inhibition at 50 µg/mL', 99.4);
